- assay.remarks: Tested for concentration in brain after 0.25 hrs of intravenous administration (5 mg/kg) to male rats
- Format: ADME, organism-based
- setup.conditions: rat
measure: concentration at 0.25 h (ng/g)
// note: answer is a bare numeric in ng/g

1) Nc1c(O)nc2cc(C(F)(F)F)ccc2c1-c1cc(Cl)ccc1O :: 1470

Here's the next entry for you.
Prompt: Which concentration at 0.25 h is listed for `Nc1c(O)nc2ccc(C(F)(F)F)cc2c1-c1cc(Cl)ccc1O` ?
Response: 1310

* * *

- assay.remarks: Half-life in brain after intravenous administration (4.7 mg/kg) to male rats
- Type: ADME, organism-based
- setup.conditions: rat
measure: half-life (min)
// note: answer is a bare numeric in min

Prompt: Which half-life is listed for `Nc1c(O)nc2ccc(C(F)(F)F)cc2c1-c1cc(Cl)ccc1O` ?
Response: 486

* * *

- assay.remarks: Tested for plasma concentration after intravenous administration (4.7 mg/kg) to male rats
- Assay type: ADME, organism-based
- setup.conditions: rat
measure: AUC (ng·h/mL)
// note: answer is a bare numeric in ng·h/mL

Prompt: Which AUC is listed for `Nc1c(O)nc2ccc(C(F)(F)F)cc2c1-c1cc(Cl)ccc1O` ?
Response: 2700

* * *

- assay.remarks: Tested for plasma concentration after 2 hrs of intravenous administration (5 mg/kg) to male rats
- Assay type: ADME, organism-based
- setup.conditions: rat
measure: concentration at 2 h (ng/mL)
// note: answer is a bare numeric in ng/mL

Prompt: Which concentration at 2 h is listed for `Nc1c(O)nc2cc(C(F)(F)F)ccc2c1-c1cc(Cl)ccc1O` ?
Response: 339

* * *

- assay.remarks: Compound was evaluated for Tmax in brain after intravenous administration in male rats
- Assay type: ADME, organism-based
- setup.conditions: rat
measure: Tmax (min)
// note: answer is a bare numeric in min

Prompt: Which Tmax is listed for `Nc1c(O)nc2ccc(C(F)(F)F)cc2c1-c1cc(Cl)ccc1O` ?
Response: 4.8

* * *

- assay.remarks: Tested for ratio in brain and plasma after 2 hrs of intravenous administration (5 mg/kg) to male rats
- Format: ADME, organism-based
- setup.conditions: rat
measure: Kp at 2 h

Prompt: Which Kp at 2 h is listed for `Nc1c(O)nc2cc(C(F)(F)F)ccc2c1-c1cc(Cl)ccc1O` ?
Response: 4.4

* * *

- assay.remarks: Ratio in brain and plasma after 2 hrs of intravenous administration (5 mg/kg) to male rats was evaluated
- Format: ADME, organism-based
- setup.conditions: rat
measure: Kp at 2 h
No unit in the answer, please; the number alone is enough.

Prompt: Which Kp at 2 h is listed for `Nc1c(O)nc2ccc(C(F)(F)F)cc2c1-c1cc(Cl)ccc1O` ?
Response: 5.3

* * *

- assay.remarks: Ratio in brain and plasma after 0.25 hrs of intravenous administration (5 mg/kg) to male rats was evaluated
- Assay type: ADME, organism-based
- setup.conditions: rat
measure: Kp at 0.25 h
No unit in the answer, please; the number alone is enough.

Prompt: Which Kp at 0.25 h is listed for `Nc1c(O)nc2ccc(C(F)(F)F)cc2c1-c1cc(Cl)ccc1O` ?
Response: 1.6

* * *

- assay.remarks: Tested for concentration in brain after intravenous administration (4.7 mg/kg) to male rats
- Format: ADME, organism-based
- Parameters: dose 4.7 mg/kg, route intravenous
- setup.conditions: rat
measure: Cmax (ng/g)
// note: answer is a bare numeric in ng/g

Prompt: Which Cmax is listed for `Nc1c(O)nc2ccc(C(F)(F)F)cc2c1-c1cc(Cl)ccc1O` ?
Response: 1990
